# target or test system: Cytochrome P450 2C19 (Homo sapiens, UniProt P33261)
# Sequence (P33261 whole entry): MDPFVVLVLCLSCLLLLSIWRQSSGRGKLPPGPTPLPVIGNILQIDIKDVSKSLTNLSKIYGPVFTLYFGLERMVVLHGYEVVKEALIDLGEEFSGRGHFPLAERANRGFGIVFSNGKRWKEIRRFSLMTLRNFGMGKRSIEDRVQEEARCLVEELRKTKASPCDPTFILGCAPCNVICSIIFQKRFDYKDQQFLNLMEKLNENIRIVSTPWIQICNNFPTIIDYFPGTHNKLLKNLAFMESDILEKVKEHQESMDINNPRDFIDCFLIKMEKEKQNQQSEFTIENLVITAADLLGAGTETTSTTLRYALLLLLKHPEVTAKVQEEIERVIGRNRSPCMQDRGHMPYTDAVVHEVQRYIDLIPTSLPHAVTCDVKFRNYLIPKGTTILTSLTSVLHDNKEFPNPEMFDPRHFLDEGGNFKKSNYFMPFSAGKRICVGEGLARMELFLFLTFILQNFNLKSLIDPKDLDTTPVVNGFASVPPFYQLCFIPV
# protocol notes: Inhibition of human recombinant CYP2C19 expressed in insect microsomes
// reported pIC50 per item
Hey, just a heads up that pIC50 is the negative log base 10 of the concentration in molar.

structure notation | pIC50
COc1ccc2cc(-c3cncc4ccccc34)ccc2c1 | 5.45

// query pIC50 value for entry `COc1ccc2cc(-c3cnccc3N)ccc2c1` 4.34

----------
# target or test system: Cytochrome P450 2C9 (Homo sapiens, UniProt P11712)
# Sequence (P11712 whole entry): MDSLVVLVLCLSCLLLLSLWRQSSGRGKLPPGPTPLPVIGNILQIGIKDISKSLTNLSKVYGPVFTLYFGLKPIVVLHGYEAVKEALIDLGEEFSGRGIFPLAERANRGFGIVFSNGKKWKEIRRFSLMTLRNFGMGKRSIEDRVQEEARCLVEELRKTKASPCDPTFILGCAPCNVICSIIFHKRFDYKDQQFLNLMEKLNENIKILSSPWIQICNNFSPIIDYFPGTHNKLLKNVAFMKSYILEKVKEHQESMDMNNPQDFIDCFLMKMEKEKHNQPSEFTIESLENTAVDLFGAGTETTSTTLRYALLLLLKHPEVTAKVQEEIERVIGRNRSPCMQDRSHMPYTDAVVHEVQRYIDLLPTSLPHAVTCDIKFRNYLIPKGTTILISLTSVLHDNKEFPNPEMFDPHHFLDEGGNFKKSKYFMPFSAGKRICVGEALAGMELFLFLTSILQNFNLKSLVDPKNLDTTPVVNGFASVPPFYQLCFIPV
# protocol notes: Inhibition of human recombinant CYP2C9 expressed in insect microsomes
property measured: pIC50
Hey, just a heads up that pIC50 is the negative log base 10 of the concentration in molar.

Solved entries (count: 2):
structure notation | pIC50
COc1ccc2cc(-c3cnccc3N)ccc2c1 | 4.31
COc1cncc(-c2ccc3cc(OC)ccc3c2)c1 | 5.72

// query pIC50 value for entry `COc1ccc2cc(-c3cncc4ccccc34)ccc2c1` 5.90

----------
# target or test system: CYP1A2 (Homo sapiens, UniProt P05177)
# Sequence (P05177 whole entry): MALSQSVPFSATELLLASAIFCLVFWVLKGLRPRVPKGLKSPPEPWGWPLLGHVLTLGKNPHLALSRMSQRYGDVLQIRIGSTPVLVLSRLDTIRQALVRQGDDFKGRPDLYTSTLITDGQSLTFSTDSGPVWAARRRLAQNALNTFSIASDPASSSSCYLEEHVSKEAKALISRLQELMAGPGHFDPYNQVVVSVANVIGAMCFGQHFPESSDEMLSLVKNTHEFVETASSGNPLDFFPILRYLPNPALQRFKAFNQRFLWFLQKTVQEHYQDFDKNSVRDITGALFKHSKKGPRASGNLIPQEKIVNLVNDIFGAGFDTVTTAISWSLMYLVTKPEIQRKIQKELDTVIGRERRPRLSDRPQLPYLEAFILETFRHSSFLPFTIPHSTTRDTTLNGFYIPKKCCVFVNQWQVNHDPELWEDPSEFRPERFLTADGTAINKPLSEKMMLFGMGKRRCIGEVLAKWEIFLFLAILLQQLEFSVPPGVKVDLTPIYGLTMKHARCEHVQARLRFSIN
# protocol notes: Inhibition of human recombinant CYP1A2 expressed in insect microsomes at 2 uM
# Type: ADME, Microsome
property measured: inhibition at 2 µM (%)
The answer is to be given in %; state only the numeric part.

Solved entries (count: 3):
structure notation | target or test system | inhibition at 2 µM / %
CCOc1cncc(-c2ccc3cc(OC)ccc3c2)c1 | CYP1A2 (Homo sapiens, UniProt P05177) | 85
COc1ccc2cc(-c3cncc4ccccc34)c(C)cc2c1 | CYP1A2 (Homo sapiens, UniProt P05177) | 45
COc1ccc2cc(-c3cnccc3N)ccc2c1 | CYP1A2 (Homo sapiens, UniProt P05177) | 58

Lab request: please report inhibition at 2 µM under test system CYP1A2 (Homo sapiens, UniProt P05177) for `COc1cncc(-c2cc3ccc(OC)cc3cc2C)c1` 91

Lab request: please report inhibition at 2 µM under test system CYP1A2 (Homo sapiens, UniProt P05177) for `COc1ccc2cc(-c3cncc(CO)c3)ccc2c1` 93

Lab request: please report inhibition at 2 µM under test system CYP1A2 (Homo sapiens, UniProt P05177) for `COc1ccc2cc(-c3cnccc3C)ccc2c1` 98

----------
// reported Cmax per item
# protocol notes: Cmax in Wistar rat at 5 mg/kg, po
# Type: ADME, organism-based
# Design: dose 5 mg/kg, route oral
# test conditions: in vivo
The answer is to be given in ng/mL; state only the numeric part.

Solved entries (count: 2):
compound | Cmax / ng/mL
N#Cc1ccc(C2CCCc3cncn32)cc1 (centres undefined) | 454
COc1ccc2cc(-c3cncc4ccccc34)ccc2c1 | 81

We now examine a further compound.
// query Cmax value for entry `COc1ccc2cc(-c3cccnc3)ccc2c1` 222

----------
# Species: Homo sapiens
# protocol notes: Selectivity ratio of IC50 for human CYP11B1 to IC50 for human CYP11B2
// reported Ratio IC50 per item
Write the number on its own, no unit after it.

compound | property measured | value reported
COc1ccc2cc(-c3cncc4ccccc34)ccc2c1 | Ratio IC50 | 112
COc1ccc2cc(-c3cnccc3N)ccc2c1 | Ratio IC50 | 117
COc1cncc(-c2ccc3cc(OC)ccc3c2)c1 | Ratio IC50 | 57
COc1ccc2cc(-c3cncc(C(C)O)c3)ccc2c1 (stereo not drawn) | Ratio IC50 | 198
COc1ccc2cc(-c3cncc(-c4ccccc4)c3)ccc2c1 | Ratio IC50 | 32
COc1ccc2cc(-c3cnccc3CO)ccc2c1 | Ratio IC50 | 80

// query Ratio IC50 value for entry `COc1ccc2cc(-c3cccnc3)c(C)cc2c1` 150

// query Ratio IC50 value for entry `N#Cc1ccc2c(c1)CCC(c1cccnc1)=C2` 103

// query Ratio IC50 value for entry COc1ccc2cc(-c3cncc(C(C)OC)c3)ccc2c1 (stereo not drawn) 50

// query Ratio IC50 value for entry `COCc1cncc(-c2ccc3cc(OC)ccc3c2)c1` 155

// query Ratio IC50 value for entry `N#Cc1ccc2cc(-c3cccnc3)ccc2c1` 239

// query Ratio IC50 value for entry `COC(=O)c1cncc(-c2ccc3cc(OC)ccc3c2)c1` 19

// query Ratio IC50 value for entry COc1cncc(C2=Cc3ccc(OC)cc3CC2C)c1 (stereo not drawn) 83

----------
// reported AUC(0-inf) per item
# protocol notes: in vivo
# test conditions: Wistar, rat, plasma, po, 5 mg/kg
Please give the number followed by its unit.

structure notation | value reported
COc1ccc2cc(-c3cccnc3)ccc2c1 | 1540 ng·h/mL

We now examine a further compound.
// query AUC(0-inf) value for entry `COc1ccc2cc(-c3cncc4ccccc34)ccc2c1` 762 ng·h/mL
